Some molecules, each annotated with its measured Tmax.
experiment: Bioavailability evaluation (pharmacokinetics after oral capsule administration); assay type: in vivo; conditions: dog; fasted male beagle dogs, oral capsules, 10 mg/kg, plasma
Answer with a number only, understood to be in h.

| molecule | uom | Tmax |
| --- | --- | --- |
| Cc1cccc(C)c1CNc1cc(C(=O)N2CCC2)cn2c(C)c(C)nc12 [Compound I (free base)] | h | 5 |

For the next question, use this molecule.
Please give the measured Tmax for this molecule: Cc1cccc(C)c1CNc1cc(C(=O)N2CCC2)cn2c(C)c(C)nc12.O=C(O)CC(O)(CC(=O)O)C(=O)O [Citrate of Compound I] 1

* * *

assay: Bioavailability evaluation (pharmacokinetics after oral capsule administration); format: in vivo; conditions: dog; fasted male beagle dogs, oral capsules, 10 mg/kg, plasma
outcome.measure: AUC(0-t) (ng·h/mL)
Give the quantity in ng·h/mL, number only.

| compound | outcome.measure | meas.value |
| --- | --- | --- |
| Cc1cccc(C)c1CNc1cc(C(=O)N2CCC2)cn2c(C)c(C)nc12.O=C(O)CC(O)(CC(=O)O)C(=O)O [Citrate of Compound I] | AUC(0-t) | 15000 |

Could you now look at the following compound, please?
Please look up its AUC(0-t): Cc1cccc(C)c1CNc1cc(C(=O)N2CCC2)cn2c(C)c(C)nc12 [Compound I (free base)] 2630
